// data source = paper PMC12091851

Tested target: HDAC1 (Homo sapiens, UniProt Q13547)
Sequence (Q13547 whole entry): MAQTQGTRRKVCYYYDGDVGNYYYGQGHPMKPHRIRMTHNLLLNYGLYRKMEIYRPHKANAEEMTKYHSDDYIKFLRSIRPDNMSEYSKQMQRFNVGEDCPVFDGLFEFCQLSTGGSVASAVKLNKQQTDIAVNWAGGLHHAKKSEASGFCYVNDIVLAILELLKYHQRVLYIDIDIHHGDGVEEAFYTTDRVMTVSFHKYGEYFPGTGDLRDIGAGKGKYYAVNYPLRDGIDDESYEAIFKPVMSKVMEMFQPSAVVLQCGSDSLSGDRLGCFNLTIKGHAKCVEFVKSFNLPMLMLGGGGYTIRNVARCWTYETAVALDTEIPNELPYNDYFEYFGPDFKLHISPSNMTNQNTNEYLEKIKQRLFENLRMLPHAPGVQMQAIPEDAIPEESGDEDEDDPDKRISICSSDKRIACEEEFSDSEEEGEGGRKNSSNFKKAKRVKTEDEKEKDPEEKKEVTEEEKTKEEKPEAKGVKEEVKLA

{"Compound": "O=C(CCCCCCNC(=O)c1ccc(NC(=O)CCCCCCCCCCCN(C(=O)CCl)C(C(=O)NCc2ccccc2)c2ccc(Cl)c(Cl)c2)cc1)NO (stereo not shown) [Compound 1j]", "Tested target": "HDAC1 (Homo sapiens, UniProt Q13547)", "Reading unit": "µM", "IC50": 1.03}

###

Test system: MDA-MB-231 cells
Test summary: MTT cell viability assay
Format: cell-based, human
Condition: Homo sapiens, MDA-MB-231; 72 h; n.e.: no effect (≤25 % effect up to 50 μM)
Parameter EC50: see the listing below.
Observable: EC50 (µM)

{"Molecule": "O=C(CCCCCCNC(=O)c1ccc(N(C(=O)CCl)C(C(=O)NCc2ccccc2)c2ccc(Cl)c(Cl)c2)cc1)NO (centres unmarked)", "Measurement": 8.8}
{"Molecule": "O=C(CCCCCCNC(=O)c1ccc(NC(=O)CCCCCCCCCCCN(C(=O)CCl)C(C(=O)NCc2ccccc2)c2ccc(Cl)c(Cl)c2)cc1)NO (centres unmarked)", "Measurement": 28}
